Assay: self-splicing fitness, log relative to wild type (ln ratio); higher = more splicing; Tetrahymena group I intron in knt gene, E. coli kanamycin selection, DiMSum; sequences stand for … in CUCUCU…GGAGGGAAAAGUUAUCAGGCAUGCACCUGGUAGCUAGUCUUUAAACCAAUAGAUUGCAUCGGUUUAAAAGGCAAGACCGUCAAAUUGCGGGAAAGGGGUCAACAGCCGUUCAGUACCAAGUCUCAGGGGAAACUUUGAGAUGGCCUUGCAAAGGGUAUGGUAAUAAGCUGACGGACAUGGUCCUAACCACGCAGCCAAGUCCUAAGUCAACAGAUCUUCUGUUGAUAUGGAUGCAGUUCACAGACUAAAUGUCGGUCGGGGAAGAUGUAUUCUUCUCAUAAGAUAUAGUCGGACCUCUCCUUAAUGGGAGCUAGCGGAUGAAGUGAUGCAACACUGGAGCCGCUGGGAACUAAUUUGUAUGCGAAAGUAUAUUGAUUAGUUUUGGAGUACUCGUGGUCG;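 note: selection with 25 µg/mL kanamycin versus none on LB agar overnight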
Conditions: 37 °C

>  <item sequence>
GCGUAGCAAUAUUACGCUUC

>  <self-splicing fitness (ln)>
-0.836

$$$$
>  <item sequence>
GAGUAGCAAUAUUACGGACC

>  <self-splicing fitness (ln)>
-0.248

$$$$
>  <item sequence>
GGUCAGCAAUAUUACGUGCG

>  <self-splicing fitness (ln)>
-0.078

$$$$
>  <item sequence>
UAGAAGCAAUAUUACGAUCC

>  <self-splicing fitness (ln)>
-1.45

$$$$
>  <item sequence>
GGCUAGCAAUAUUACGGGAG

>  <self-splicing fitness (ln)>
-1.84

$$$$
>  <item sequence>
AGGAAGCAAUAUUACGGGAC

>  <self-splicing fitness (ln)>
-1.67

$$$$
>  <item sequence>
AUUUAGCAAUAUUACGGGUA

>  <self-splicing fitness (ln)>
-1.17

$$$$
>  <item sequence>
AUCUAGCAAUAUUACGAAUU

>  <self-splicing fitness (ln)>
-1.74

$$$$
>  <item sequence>
CUACAGCAAUAUUACGGAGA

>  <self-splicing fitness (ln)>
-2.27

$$$$
>  <item sequence>
CAUCAGCAAUAUUACGUUUC

>  <self-splicing fitness (ln)>
-1.82

$$$$
>  <item sequence>
CAGGAGCAAUAUUACGGCUU

>  <self-splicing fitness (ln)>
-2.15

$$$$
>  <item sequence>
UUACAGCAAUAUUACGUCAG

>  <self-splicing fitness (ln)>
-0.337

$$$$
>  <item sequence>
AUCGAGCAAUAUUACGAGCG

>  <self-splicing fitness (ln)>
-1.81

$$$$
>  <item sequence>
AAUUAGCAAUAUUACGCCGC

>  <self-splicing fitness (ln)>
-1.66

$$$$
>  <item sequence>
CUGGAGCAAUAUUACGACGU

>  <self-splicing fitness (ln)>
-1.09

$$$$
>  <item sequence>
AUGCAGCAAUAUUACGCUUA

>  <self-splicing fitness (ln)>
-0.294

$$$$
>  <item sequence>
GGCAAGCAAUAUUACGCGUU

>  <self-splicing fitness (ln)>
-0.815

$$$$
>  <item sequence>
UAUCAGCAAUAUUACGAAGU

>  <self-splicing fitness (ln)>
-0.868

$$$$
>  <item sequence>
CCCAAGCAAUAUUACGGUCG

>  <self-splicing fitness (ln)>
-0.827

$$$$
>  <item sequence>
UACCAGCAAUAUUACGCACG

>  <self-splicing fitness (ln)>
-0.903

$$$$
>  <item sequence>
AUAAAGCAAUAUUACGUGGA

>  <self-splicing fitness (ln)>
-1.38

$$$$
>  <item sequence>
UUAAAGCAAUAUUACGUUGA

>  <self-splicing fitness (ln)>
-0.0751

$$$$
>  <item sequence>
UCCUAGCAAUAUUACGUGCG

>  <self-splicing fitness (ln)>
-1.98

$$$$
>  <item sequence>
AUUCAGCAAUAUUACGUUAG

>  <self-splicing fitness (ln)>
-1.52

$$$$
>  <item sequence>
CAGCAGCAAUAUUACGUUAC

>  <self-splicing fitness (ln)>
-2.34

$$$$
>  <item sequence>
AAAGAGCAAUAUUACGCCUU

>  <self-splicing fitness (ln)>
-1.81

$$$$
>  <item sequence>
UUAUAGCAAUAUUACGCUCU

>  <self-splicing fitness (ln)>
-0.705

$$$$
>  <item sequence>
CUGCAGCAAUAUUACGUGAU

>  <self-splicing fitness (ln)>
-0.758

$$$$
>  <item sequence>
GCGGAGCAAUAUUACGUUGU

>  <self-splicing fitness (ln)>
-1.79

$$$$
>  <item sequence>
AACUAGCAAUAUUACGGCUC

>  <self-splicing fitness (ln)>
-0.155

$$$$
>  <item sequence>
UGAGAGCAAUAUUACGUUCG

>  <self-splicing fitness (ln)>
-1.3

$$$$
>  <item sequence>
UUAGAGCAAUAUUACGGACG

>  <self-splicing fitness (ln)>
-0.509

$$$$
>  <item sequence>
AGCGAGCAAUAUUACGAUUG

>  <self-splicing fitness (ln)>
-1.52

$$$$
>  <item sequence>
UUAAAGCAAUAUUACGCGGC

>  <self-splicing fitness (ln)>
-1.03

$$$$
